measured-target: KRAS(G12D)/SOS1 (Homo sapiens, UniProt P01116, G12D)
Sequence (P01116 1-188 isoform P01116-2 G12D): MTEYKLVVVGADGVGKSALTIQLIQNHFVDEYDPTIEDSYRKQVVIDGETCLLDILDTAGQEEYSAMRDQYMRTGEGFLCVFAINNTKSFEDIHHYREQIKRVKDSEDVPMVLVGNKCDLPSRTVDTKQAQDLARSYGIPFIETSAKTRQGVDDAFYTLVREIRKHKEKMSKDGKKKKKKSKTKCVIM
test-name: KRAS(G12D)/SOS1 homogeneous time-resolved fluorescence (HTRF) assay
measurement-context: absence of GTP; 4° C., 3 hr
Each entry below lists one item and its recorded IC50 value.
parameter-measured: IC50

C#Cc1c(F)ccc2cc(O)cc(-c3ncc4c(N5CC6CCC(C5)N6)nc(OCC5(CN6CCN(C7CN(Cc8ccc9c(c8)CN(C(=O)c8cc(C(C)C)c(O)cc8O)C9)C7)CC6)CC5)nc4c3F)c12    < 0.1 µM
CNC(=O)c1nnc(-c2cc(C(C)C)c(O)cc2O)n1-c1ccc(CN2CCN(C(=O)C3CCN([C@H]4C[C@@H](COc5nc(N6CC7CCC(C6)N7)c6cnc(-c7cccc8cccc(Cl)c78)c(F)c6n5)N(C)C4)CC3)CC2)cc1    0.1 to 1 µM
C#Cc1cccc2cc(O)cc(-c3ncc4c(N5CC6CCC(C5)N6)nc(OCC5(CN6CCN(CC7CCN(Cc8ccc9c(c8)CN(C(=O)c8cc(C(C)C)c(O)cc8O)C9)CC7)CC6)CC5)nc4c3F)c12    < 0.1 µM
C#Cc1cccc2cccc(-c3ncc4c(N5CC6CCC(C5)N6)nc(OCC5(CN6CCN(C(=O)C7CCN(Cc8ccc9c(c8)CN(C(=O)c8cc(C(C)C)c(O)cc8O)C9)CC7)CC6)CC5)nc4c3F)c12    < 0.1 µM
CC(C)c1cc(-c2nnc(C(=O)NCC(F)(F)F)n2-c2ccc(CN3CCN([C@H]4C[C@@H](COc5nc(N6CC7CCC(C6)N7)c6cnc(-c7cc(O)cc8ccccc78)c(F)c6n5)N(C)C4)CC3)cc2)c(O)cc1O    < 0.1 µM
C#Cc1cccc2cc(O)cc(-c3ncc4c(N5CC6CNC(C6)C5)nc(OCC5(CN6CCN(CC7CCN(Cc8ccc9c(c8)CN(C(=O)c8cc(C(C)C)c(O)cc8O)C9)CC7)CC6)CC5)nc4c3F)c12 (stereo not drawn)    < 0.1 µM
CC(C)c1cc(C(=O)N2Cc3ccc(CN4CCC(C(=O)N5CCN(C[C@H]6CC[C@@H](COc7nc(N8CC9CCC(C8)N9)c8cnc(-c9cc(O)cc%10ccccc9%10)c(F)c8n7)N6C)CC5)CC4)cc3C2)c(O)cc1O    < 0.1 µM
CCNC(=O)c1nnc(-c2cc(C(C)C)c(O)cc2O)n1-c1ccc(CN2CCN(C[C@H]3CC[C@@H](COc4nc(N5CC6CCC(C5)N6)c5cnc(-c6cccc7cccc(C)c67)c(F)c5n4)N3C)CC2)cc1    0.1 to 1 µM
CCNC(=O)c1nnc(-c2cc(C(C)C)c(O)cc2O)n1-c1ccc(CN2CCN([C@H]3C[C@@H](COc4nc(N5CC6CCC(C5)N6)c5cnc(-c6cccc7cccc(OC)c67)c(F)c5n4)N(C)C3)CC2)cc1    > 1 µM
C#Cc1c(F)ccc2cc(O)cc(-c3nc(OC)c4c(N5CC6CCC(C5)N6)nc(OCC5(CN6CCC(C7CCN(Cc8ccc(-n9c(C(=O)NC(C)C(F)(F)F)nnc9-c9cc(C(C)C)c(O)cc9O)cc8)CC7)CC6)CC5)nc4c3F)c12 (stereo not drawn)    < 0.1 µM
Cc1cccc2cccc(-c3ncc4c(N5CC6CCC(C5)N6)nc(OC[C@@H]5C[C@H](N6CCN(Cc7ccc8c(c7)CN(C(=O)c7cc(C(C)C)c(O)cc7O)C8)CC6)CN5C)nc4c3F)c12 [Compound 37]    < 0.1 µM
CCc1cc(-c2nnc(C(=O)NCC(F)(F)F)n2-c2ccc(CN3CCN(C[C@H]4CC[C@@H](COc5nc(N6CC7CCC(C6)N7)c6cnc(-c7cccc8cccc(C)c78)c(F)c6n5)N4C)CC3)cc2)c(O)cc1O    0.1 to 1 µM
C#Cc1c(F)ccc2cc(O)cc(-c3ncc4c(N5CC6CCC(C5)N6)nc(OCC5CN(C6CN(Cc7ccc8c(c7)CN(C(=O)c7cc(C(C)C)c(O)cc7O)C8)C6)C5)nc4c3F)c12    < 0.1 µM
C#Cc1c(F)ccc2cc(O)cc(-c3ncc4c(N5CC6CCC(C5)N6)nc(OCC5(CN6CCC7(CCN(Cc8ccc9c(c8)CN(C(=O)c8cc(C(C)C)c(O)cc8O)C9)CC7)CC6)CC5)nc4c3F)c12    < 0.1 µM
C#Cc1c(F)ccc2cc(O)cc(-c3ncc4c(N5CC6CNC(C6)C5)nc(OCC5(CN6CCC(C7CCN(Cc8ccc(-n9c(C(=O)NC(C)C(F)(F)F)nnc9-c9cc(C(C)C)c(O)cc9O)cc8)CC7)CC6)CC5)nc4c3F)c12 (stereo not drawn)    0.1 to 1 µM
C#Cc1cccc2cc(O)cc(-c3ncc4c(N5CC6CCC(C5)N6)nc(OCC5(CN6CCN(CC7CCN(Cc8ccc9c(c8)CN(C(=O)c8cc(C(C)C)c(O)cc8OC)C9)CC7)CC6)CC5)nc4c3F)c12    < 0.1 µM
C#Cc1cccc2cc(O)cc(-c3ncc4c(N5CC6CNC(C6)C5)nc(OCC5(CN6CCN(CC7CCN(Cc8ccc(-n9c(C(=O)NC(C)C(F)(F)F)nnc9-c9cc(C(C)C)c(O)cc9O)cc8)CC7)CC6)CC5)nc4c3F)c12 (stereo not drawn)    < 0.1 µM
CCNC(=O)c1nnc(-c2cc(C(C)C)c(O)cc2O)n1-c1ccc(CN2CCC(C(=O)N3CCN([C@H]4C[C@@H](COc5nc(N6CC7CCC(C6)N7)c6cnc(-c7ccccc7C(F)(F)F)c(F)c6n5)N(C)C4)CC3)CC2)cc1    > 1 µM
